Test system: MILI (PIWIL2) piRISC loaded with L1MC piRNA (26 nt);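 also: 1 nM active piRISC with 0.1 nM target library at 33 °C single turnover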
Experiment: pre-steady-state target cleavage rate (min^-1); guide: L1MC piRNA 5'p-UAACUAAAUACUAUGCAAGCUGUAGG; higher = faster piRNA-guided slicing of the target
Settings: auxiliary factor: 500 nM mouse GTSF1
recorded-endpoint: pre-steady-state target cleavage rate
Reply with just the number.

UCCUCCUAGUCCUUGCAUAGUAUUUAGUAA
0.102
UCCUGGUACAGCUAGGAUAGUAUUUAGUUA
0.191
UCCUGGAACAGCUUGCAUAGUAUUUUCAUA
0.0434

Give its pre-steady-state target cleavage rate value. Item: UCCUGGAUGUCGAACCUAUAGUAUUUAGUUA
0.00362

====

System: MILI (PIWIL2) piRISC loaded with L1MC piRNA (26 nt);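 also: 1 nM active piRISC with 0.1 nM target library at 33 °C single turnover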
Experiment: pre-steady-state target cleavage rate (min^-1); guide: L1MC piRNA 5'p-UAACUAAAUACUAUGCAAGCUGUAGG; higher = faster piRNA-guided slicing of the target
Settings: auxiliary factor: 500 nM mouse GTSF1
recorded-endpoint: pre-steady-state target cleavage rate
Reply with just the number.

Example entries and their recorded answers appear below.
UCCUGGAUGUCCUUGCAUAGUAUUUAGUCUA
0.0325
UCCUGGAUGUCGAAGCAUAAUAUUUAGUUA
0.0097

Alright, here's another sequence for you.
Give its pre-steady-state target cleavage rate value. Item: UCCUCCUACAGCUUGCAUAGUAUAUUCAAA
0.125

====

Test system: EfPiwi piRISC loaded with piRNA #1 (26 nt)
Assay: pre-steady-state target cleavage rate (min^-1); auxiliary factor: 500 nM Ephydatia muelleri Gtsf1; guide: piRNA #1 5'p-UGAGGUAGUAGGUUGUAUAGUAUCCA; higher = faster piRNA-guided slicing of the target
Class (required): determined from pre-steady-state target cleavage rate; valid ranges are low: < 0.006; middle: ≥ 0.006 and < 0.008; high: ≥ 0.008

Some solved entries appear below for comparison.
GGAGACGAUACUAAUACAACCUACUACCUCA
high
GGAGACCGUACUAUACAACCUACUACCUCA
high
GGAGACCAUACUAUACAACAUACUACCUCA
low

Exercise: read the entry GGAGAGGAUACUAUACAACUUACUACCUCA and state which class it falls under.
high

Exercise: read the entry GGAGACCAUACUAUCCAACCUACUACCUCA and state which class it falls under.
middle

Exercise: read the entry GGAGUGGAUACUAUACAACCAACUACCUCA and state which class it falls under.
low

Exercise: read the entry GGAGUGGAUACUAUAAAACCUACUACCUCA and state which class it falls under.
low

Exercise: read the entry GGAGACCUAUCUAUACACCCUACUACCUCA and state which class it falls under.
middle

Exercise: read the entry GGAGUGGAUACUAUACAACCUACUACCUUCA and state which class it falls under.
high

Exercise: read the entry GGAGACGAUACAAUACAACCUACUACCACA and state which class it falls under.
low

Exercise: read the entry GGAGACCAUACAAUACUACCUACUACCUCA and state which class it falls under.
low

Exercise: read the entry GGAGACCUUACUAUACAACACUACUACCUCA and state which class it falls under.
high

====

Tested on: MILI (PIWIL2) piRISC loaded with L1MC piRNA (26 nt);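 also: 1 nM active piRISC with 0.1 nM target library at 33 °C single turnover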
Assay: pre-steady-state target cleavage rate (min^-1); guide: L1MC piRNA 5'p-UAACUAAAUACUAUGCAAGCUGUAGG; higher = faster piRNA-guided slicing of the target
Details: auxiliary factor: 500 nM mouse GTSF1
Each entry below carries its recorded pre-steady-state target cleavage rate.

Example entries and their recorded answers appear below.
UCCUCCUAGAGCAUGCAUAGUAUUUAGUUA
0.2
UCCUGGAUGUGGAAGCAUAGUAUUUAGUAA
0.0306
UCCUGCUUCUGCUUGCAUAGUAUUUAGUUA
0.199
UCCUGGAACAGCUUGCAUAGUUUAUAGUUA
0.029
UCCUGCUACAGGUUGCAUAGUAUAUAGUUA
0.305
UCCUGGAUGUGCUUCGCAUAGUAUUUAGUUA
0.155
UCCUGGAUGUCCUUGCAUAGUAAUUACUUA
0.0143
UCCUGCGACAGCUUGCAUAGUAUUUAGUUA
0.298

Give its pre-steady-state target cleavage rate value. Item: UCCUCCUUCUGCUUGCAUAGUAUUUAGUUA
0.269

Give its pre-steady-state target cleavage rate value. Item: UCCUGGAUGUGGUUGCAUAGUAUUUAGAAA
0.0521

Give its pre-steady-state target cleavage rate value. Item: UCCUGCUACAGCUUGCAUUCUAUUUACAAA
0.0141

Give its pre-steady-state target cleavage rate value. Item: UCCUGCUACAGCUUGCAUAGUUUUUUCAAA
0.0433

Give its pre-steady-state target cleavage rate value. Item: UCCUGGAACAGGUUGCAUAGUAUAUAGUUA
0.211

Give its pre-steady-state target cleavage rate value. Item: UCCUGGAUGUCCUACCAUAGUAUUUAGUUA
0.0632

Give its pre-steady-state target cleavage rate value. Item: UCCUGGAUAAGCUUGCAUAGUAUUUAGUUA
0.276

====

Each entry below carries its recorded pre-steady-state target cleavage rate.
System: MILI (PIWIL2) piRISC loaded with L1MC piRNA (26 nt);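 also: 1 nM active piRISC with 0.1 nM target library at 33 °C single turnover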
Assay: pre-steady-state target cleavage rate (min^-1); guide: L1MC piRNA 5'p-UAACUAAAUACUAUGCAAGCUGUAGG; higher = faster piRNA-guided slicing of the target
Conditions: auxiliary factor: none (no GTSF1)
Reply with just the number.

UCCUGGAACAGCUUGCAUAGUAUUUUAGUUA
0.0048

Give its pre-steady-state target cleavage rate value. Item: UCCUGGAACAGCUUGCAAAGUAUUUAGUAA
0.00401

Give its pre-steady-state target cleavage rate value. Item: UCCUCCUACAGCUUGGAUAGUAUUUUGUUA
0.00424

Give its pre-steady-state target cleavage rate value. Item: UCCUGGAUGACCUUGCAUAGUAUUUAGUUA
0.0057

Give its pre-steady-state target cleavage rate value. Item: UCCUGGUAGUCCUUGCAUAGUAUUUAGUAA
0.00362

Give its pre-steady-state target cleavage rate value. Item: UCCUCCUACACGAUGCAUAGUAUUUAGUAA
0.00362

Give its pre-steady-state target cleavage rate value. Item: UCCUGGAACAGCUUGCAUGUAUUUAGUUA
0.00308

====

Test system: EfPiwi piRISC loaded with L1MC piRNA (26 nt)
Assay: pre-steady-state target cleavage rate (min^-1); auxiliary factor: none (no Gtsf1); guide: L1MC piRNA 5'p-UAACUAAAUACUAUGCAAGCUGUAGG; higher = faster piRNA-guided slicing of the target
Each entry below carries its recorded pre-steady-state target cleavage rate.

Example entries and their recorded answers appear below.
UCCUCCUACAGCUUGCAUAGGAUUUAGUUA
0.00638
UCCUGGAUGUCGUUGAAUAGUAUUUAGUUA
< 0.0001
UCCUGGAUGUGCUUGCAUAGUAUCUUAGUUA
0.0107
UCCUGGAUGUCGAAGCAUAGUAUUUUGAUA
< 0.0001
UCCUGGAUGAGCUUGCAUAGAUUUUAGUAA
< 0.0001
UCCUGGAUCAGCUUGCAUAGUAGUUAGUUA
0.0324
UCCUGGUACAGCUUGGUAAGUAUUUACAAA
< 0.0001
UCCUGGAUGUCGAACGAUAUAUUUAGUUA
< 0.0001

Give its pre-steady-state target cleavage rate value. Item: UCCUGGAUGUCGAUGCAUCGUAUUUAGUUA
< 0.0001

Give its pre-steady-state target cleavage rate value. Item: UCCUGGAUGUCGAACGUAUGAAUUUAGAUA
< 0.0001

Give its pre-steady-state target cleavage rate value. Item: UCCUGGAUGUCCUUCCAUAGUAAUUAGUUA
< 0.0001

Give its pre-steady-state target cleavage rate value. Item: UCCUGGAUGAGCUUGCAUAGUAGUUAGUUA
0.00517

Give its pre-steady-state target cleavage rate value. Item: UCCUGGAUGUCGAACGUAUGUGAUUUAGUUA
< 0.0001

Give its pre-steady-state target cleavage rate value. Item: UCCUGGAUGUGCUUGCAUACAUUUUAGUAA
< 0.0001

Give its pre-steady-state target cleavage rate value. Item: UCCUGCAUGAGCUUGCAUAGUAUUUAGAAA
< 0.0001

Give its pre-steady-state target cleavage rate value. Item: UCCUGGAACAGCUUCCAUAGUAUUAAGUUA
< 0.0001

====

Tested on: MILI (PIWIL2) piRISC loaded with piRNA #1 (26 nt);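 also: 1 nM active piRISC with 0.1 nM target library at 33 °C single turnover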
Test: pre-steady-state target cleavage rate (min^-1); guide: piRNA #1 5'p-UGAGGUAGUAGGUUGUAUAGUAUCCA; MIWI and MILI are mouse PIWI proteins and EfPiwi is from a freshwater sponge; tags in brackets are library labels; higher = faster piRNA-guided slicing of the target
Conditions: auxiliary factor: 500 nM mouse GTSF1
Class (required): determined from pre-steady-state target cleavage rate; valid ranges are bottom end = under 0.02, midrange = from 0.02 up to 0.1, top end = 0.1 and over

Some solved entries appear below for comparison.
GGAGACCAAACUUUACAACCUACUACCUCA
top end
GGAGACCAUUCUAUACAACCAACUACCUCA
bottom end
GGAGACCUAUGAUAACAACCUAAUACCUCA
bottom end

Exercise: read the entry GGAGACCUAUGUAUACUACCUACUACCUGA and state which class it falls under.
bottom end

Exercise: read the entry GGAGACCUAUCUAUACUACCUACUUCCUCA and state which class it falls under.
midrange
